- Target under test: human thyroid receptor beta ligand-binding domain (LBD) (Homo sapiens, UniProt P10828)
- Construct: Thyroid receptor beta LBD was added to the plate at a final concentration of 1 nM
- Sequence (P10828 217-461 limits assumed): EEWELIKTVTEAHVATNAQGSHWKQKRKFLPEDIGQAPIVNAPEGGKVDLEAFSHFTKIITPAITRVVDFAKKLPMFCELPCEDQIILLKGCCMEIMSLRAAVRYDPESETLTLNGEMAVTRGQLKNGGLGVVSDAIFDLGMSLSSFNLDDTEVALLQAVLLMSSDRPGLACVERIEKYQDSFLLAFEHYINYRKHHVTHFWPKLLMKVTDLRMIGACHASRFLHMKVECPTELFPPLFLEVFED
- Test details: THR Biochemical Assay (Assay 1): TR-FRET thyroid receptor beta coactivator assay
- Condition set: GST-tagged thyroid receptor beta LBD 1 nM, fluorescein SRC2-2 coactivator peptide 200 nM, 1 hr at rt, TR-FRET ratio 520:495; read-out: Assay 1 (EC50, THR-beta agonist)
- From the text: THR Biochemical Assay (Assay 1) The TR-FRET thyroid receptor beta coactivator assay was used with slight, optimized modifications of the manufacturer's protocol (Invitrogen). […] The energy transfer was detected as an increase in the fluorescence emission of the fluorescein acceptor, and a decrease in the fluorescence emission of the terbium donor. […]
Measured endpoint: EC50

Take a look at these entries with their results.
- Query smiles: "Cc1cc(-n2nc(N)c(=O)[nH]c2=O)cc(C)c1Oc1ccc2c(c1)C1(CCCC1)C(=O)N2"
  EC50: "< 50 nM"
- Query smiles: "Cc1cc2c(cc1Oc1c(Cl)cc(-n3nc(N)c(=O)[nH]c3=O)cc1Cl)C1(CCC1)C(=O)N2"
  EC50: "> 25000 nM"
- Query smiles: "O=C(Nc1cc(Cl)c(Oc2ccc3c(c2)C2(CCC2)C(=O)N3)c(Cl)c1)c1noc(=O)[nH]1"
  EC50: "< 50 nM"

Given item Cc1cc(-n2nc(C#N)c(=O)[nH]c2=O)cc(C)c1Oc1ccc2c(c1)C1(CCC1)C(=O)N2 , the value recorded as its EC50 is < 50 nM

Given item O=C(O)C(=O)Nc1cc(Cl)c(Oc2ccc3c(c2)C(F)(F)C(=O)N3)c(Cl)c1 , the value recorded as its EC50 is < 50 nM

Given item O=C(O)C(=O)Nc1cc(Cl)c(Oc2ccc3c(c2)C2(CCC2)C(=O)N3)c(Cl)c1 , the value recorded as its EC50 is < 50 nM

Given item Nc1nn(-c2cc(Cl)c(Oc3ccc4c(c3F)C3(CCC3)C(=O)N4)c(Cl)c2)c(=O)[nH]c1=O , the value recorded as its EC50 is < 50 nM

Given item Cc1cc(-n2nc(N)c(=O)[nH]c2=O)cc(C)c1Cc1ccc2c(n1)C(C)(C)C(=O)N2 , the value recorded as its EC50 is 50 to 250 nM

Given item Nc1nn(-c2cc(Cl)c(Oc3ccc4c(c3Cl)C3(CC3)C(=O)N4)c(Cl)c2)c(=O)[nH]c1=O , the value recorded as its EC50 is < 50 nM

Given item Cc1cc(-n2nc(C#N)c(=O)[nH]c2=O)cc(C)c1Cc1ccc2c(c1)C1(CC(F)(F)C1)C(=O)N2 , the value recorded as its EC50 is > 25000 nM

Given item O=C(Nc1cc(Cl)c(Oc2ccc3c(c2)C2(CC2)C(=O)N3)c(C(F)(F)F)c1)c1noc(=O)[nH]1 , the value recorded as its EC50 is < 50 nM

Given item O=C1Nc2ccc(Oc3c(Cl)cc(-n4ncc(=O)[nH]c4=O)cc3Cl)c(Cl)c2C12CC2 , the value recorded as its EC50 is < 50 nM

Given item O=C(Nc1cc(Cl)c(Oc2ccc3c(c2Cl)C2(CC2)C(=O)N3)c(Cl)c1)c1noc(=O)[nH]1 , the value recorded as its EC50 is < 50 nM

Given item Nc1nn(-c2cc(Cl)c(Oc3cnc4c(c3)C3(CC3)C(=O)N4)c(Cl)c2)c(=O)[nH]c1=O , the value recorded as its EC50 is 250 to 1000 nM
